Measured values drawn from patent US12404295B2 for this set.

target_or_system: human Gal-3 (hGal-3) (Homo sapiens (Human))
Sequence (P17931 whole entry): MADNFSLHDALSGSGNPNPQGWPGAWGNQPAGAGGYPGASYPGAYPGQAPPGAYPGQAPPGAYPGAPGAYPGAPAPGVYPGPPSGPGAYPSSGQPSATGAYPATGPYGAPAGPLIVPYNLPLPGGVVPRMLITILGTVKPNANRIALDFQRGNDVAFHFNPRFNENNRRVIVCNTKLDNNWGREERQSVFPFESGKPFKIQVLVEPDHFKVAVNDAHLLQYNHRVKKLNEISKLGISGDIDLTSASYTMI
experiment_description: competitive binding assay: biotinylated hGal-3 binding to microplate-adsorbed asialofetuin (ASF)
condition_set: Table 9; 2-OMe-Gal inhibitors; read-out: IC50 (Gal-3 inhibition)
readout_kind: IC50 (µM)

[a] CO[C@@H]1[C@@H](n2cc(-c3cc(F)c(F)c(F)c3)nn2)[C@@H](O)[C@@H](CO)O[C@H]1S[C@H](c1ncccc1Cl)C1(O)CCC(F)(F)CC1 [Example 2.44.137R.I.]
[b] CO[C@@H]1[C@@H](n2cc(-c3cc(F)c(F)c(F)c3)nn2)[C@@H](O)[C@@H](CO)O[C@H]1SC(c1ncccc1Cl)C1(O)CCC(F)(F)CC1 (some centres unmarked)
Of a versus b , which is the one with smaller reported IC50? Provide the label of your selected option as the answer.
a

###

This document collects IC50 values reported for UniProt P09382.
readout_kind: IC50 (nM)

Guide cases for IC50, answers given:
[
  {
    "compound": "CO[C@@H]1[C@@H](n2cc(-c3cc(F)c(F)c(F)c3)nn2)[C@@H](O)[C@@H](CO)O[C@H]1S[C@H](c1ncccc1C)C1(O)CCOCC1 [Example 2.41.126R.I.]",
    "target_or_system": "UniProt P09382",
    "IC50, nM": 800
  },
  {
    "compound": "Cc1c(F)cccc1C(S[C@@H]1O[C@H](CO)[C@H](O)[C@H](n2cc(-c3cc(F)c(F)c(F)c3)nn2)[C@H]1O)C(C)(C)O (some centres unmarked) [Example 2.31.114.]",
    "target_or_system": "UniProt P09382",
    "IC50, nM": 2270
  },
  {
    "compound": "OC[C@H]1O[C@@H](S[C@H](c2ccccc2C(F)(F)F)C2(O)CCC(F)(F)CC2)[C@H](O)[C@@H](n2cc(-c3cc(F)c(F)c(F)c3)nn2)[C@H]1O [Example 2.44.112R.]",
    "target_or_system": "UniProt P09382",
    "IC50, nM": 770
  }
]

[A] CO[C@@H]1[C@@H](n2cc(-c3cc(F)c(F)c(F)c3)nn2)[C@@H](O)[C@@H](CO)O[C@H]1S[C@@H](c1nccc(Cl)c1Cl)C1(O)CCC(F)(F)CC1 [Example 2.44.143S.I.]
[B] CCc1c([C@@H](S[C@@H]2O[C@H](CO)[C@H](O)[C@H](n3cc(-c4cc(F)c(F)c(F)c4)nn3)[C@H]2OC)C2(O)CCC(F)(F)CC2)noc1C1CC1 [Example 2.44.130R.I.]
Of A versus B , which is the one with smaller reported IC50? Provide the label of your selected option as the answer.
B
(B: 160 nM, A: 9770 nM)

###

This document collects IC50 values reported for human Gal-1 (hGal-1) (Homo sapiens (Human)).
readout_kind: IC50 (nM)

[
  {
    "compound": "Cc1ccccc1C(S[C@@H]1O[C@H](CO)[C@H](O)[C@H](n2cc(-c3cc(F)c(F)c(F)c3)nn2)[C@H]1O)C1(O)CC(C)C1 (some centres unmarked) [Example 2.36.102.]",
    "IC50 [nM]": 13200
  },
  {
    "compound": "Cc1ccccc1C(S[C@@H]1O[C@H](CO)[C@H](O)[C@H](n2cc(-c3cc(F)c(F)c(F)c3)nn2)[C@H]1O)C1(O)CCC1 (some centres unmarked) [Example 2.34.102.]",
    "IC50 [nM]": 11000
  }
]

[P] Cc1nc([C@@H](S[C@@H]2O[C@H](CO)[C@H](O)[C@H](n3cc(-c4cc(F)c(F)c(F)c4)nn3)[C@H]2O)C(C)(C)O)c(C)s1 [Example 2.31.123R.]
[Q] CN1CCC(O)([C@H](S[C@@H]2O[C@H](CO)[C@H](O)[C@H](n3cc(-c4cc(F)c(F)c(F)c4)nn3)[C@H]2O)c2ccccc2C(F)(F)F)CC1 [Example 2.40.112R.]
Name the one with the greater IC50 value, either P or Q as given. Provide the label of your selected option as the answer.
P
(P: 1190 nM, Q: 150 nM)
